TEST_SUMMARY: protein stability index of a GFP-peptide fusion (yeast GPS) (PSI 1-4); higher = more stable; sorted into four equal gates, so the index is relative within each strain
TEST_CONDITIONS: pdr5∆
Could you please report measured protein stability index for the items listed next?
Just the number.

Fill in the blank: the reported protein stability index of RYLAVTLQDIGFYQIKK [YMR129W/POM152] is ____.
2.65

How about this sequence: IQRTTESLILKWDNQSA [RGR1]
3.05

How about this sequence: TNLSGGEKTLSSLALVF [SMC4]
3.2

How about this sequence: SQIIPLMKKACYVGLLT [SNU114]
1.82

How about this sequence: ENRFQDTLLLLPTDGGL [POP4]
2.12

How about this sequence: SFLMRQFTRFFLLVPSK [ECM29]
2.03

How about this sequence: EVLTYVNYLISNTMYSV [YJL039C/NUP192]
2.35

How about this sequence: FGPHVDVNDVLTKYIRS [GRR1]
3.2

How about this sequence: DIGKEMSLRHFGHLMHY [RPN1]
1.25

How about this sequence: LSTRELAGKVGSIRVHK [RPC53]
1.26

How about this sequence: FMKKLRAAKLAAPENEK [RPS15]
3.25

How about this sequence: IQLLDENVGTRLLPINV [MED11]
2.86

How about this sequence: KSHSTVSSSSRHHRKTE [ISW2]
2.69

How about this sequence: MSLPATFDLTPEDAQLL [RPS0A]
2.83
